These entries and their values trace back to ChEMBL document CHEMBL1158589.

- Test system: HL-60
- PROCEDURE DETAILS: Cytotoxicity against human HL60 cells assessed as NADH level after 72 hrs by MTS cells
- Type: functional, cell-based
- PROTOCOL CONDITIONS: HL-60, 72 h
PROPERTY LABEL: pEC50
Scale explanation: pEC50 corresponds to minus log10 of a concentration expressed in moles per litre.

Worked examples, 4 molecules total:
smiles_entry=Cn1c(-c2cccc(/C=C/C(=O)NO)c2)nc2ccccc21 property_label=pEC50 endpoint_result=5.70
smiles_entry=Cc1nc(-c2cccc(/C=C/C(=O)NO)c2)n([C@@H]2CCCN(C)C2)c1-c1ccccc1 property_label=pEC50 endpoint_result=7.52
smiles_entry=CN1CCC[C@H](n2c(-c3cccc(/C=C/C(=O)NO)c3)nc3ccccc32)C1 property_label=pEC50 endpoint_result=6.80
smiles_entry=Cc1nc(-c2cccc(/C=C/C(=O)NO)c2)n(CCc2ccccc2)c1C property_label=pEC50 endpoint_result=7.10

Next item in the queue.
Challenge: Suppose we examine the molecule Cc1c(Cc2ccccc2)nc(-c2cccc(/C=C/C(=O)NO)c2)n1[C@@H]1CCCN(C)C1 ; what pEC50 value has been reported?
Response given: 7.70

---

Measured EC50, listed per entry.
- System: A549
- PROCEDURE DETAILS: Cytotoxicity against human A549 cells assessed as NADH level after 72 hrs by MTS cells
- Type: functional, cell-based
- PROTOCOL CONDITIONS: A549, 72 h
Numeric only. Scale: nM

compound=Cc1nc(-c2cccc(/C=C/C(=O)NO)c2)n([C@@H]2CCCN(C(C)C)C2)c1-c1ccccc1 endpoint_result=400
compound=Cc1c(Cc2ccccc2)nc(-c2cccc(/C=C/C(=O)NO)c2)n1CCc1ccccc1 endpoint_result=800
compound=Cc1nc(-c2cccc(/C=C/C(=O)NO)c2)n([C@@H]2CCCN(C)C2)c1-c1ccccc1 endpoint_result=400
compound=O=C(/C=C/c1cccc(-c2nc3ccccc3n2Cc2ccccc2)c1)NO endpoint_result=6300
compound=C[C@@H](c1ccccc1)n1c(-c2cccc(/C=C/C(=O)NO)c2)nc2ccccc21 endpoint_result=31000

Challenge: // query EC50 value for entry Cc1nc(-c2cccc(/C=C/C(=O)NO)c2)n(CCN2CCOCC2)c1Cc1ccccc1
Response given: 2500

---

- TEST TARGET: Histone deacetylase 8 (Homo sapiens)
- Sequence (Q9BY41 whole entry): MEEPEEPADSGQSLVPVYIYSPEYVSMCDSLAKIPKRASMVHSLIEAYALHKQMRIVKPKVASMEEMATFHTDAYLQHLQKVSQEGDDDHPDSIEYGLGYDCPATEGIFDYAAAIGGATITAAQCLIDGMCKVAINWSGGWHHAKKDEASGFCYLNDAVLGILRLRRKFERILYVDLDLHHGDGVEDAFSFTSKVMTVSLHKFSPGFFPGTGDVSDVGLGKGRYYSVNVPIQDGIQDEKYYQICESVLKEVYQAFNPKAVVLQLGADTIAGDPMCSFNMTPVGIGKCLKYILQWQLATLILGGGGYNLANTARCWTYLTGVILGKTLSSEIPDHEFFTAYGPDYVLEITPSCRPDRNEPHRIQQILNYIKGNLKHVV
- PROCEDURE DETAILS: Inhibition of human recombinant HDAC8
pIC50: −log10 of the molar value.
Think of 7 as a floor: if pIC50 stands on it or above, it is condition met; beneath it, condition not met.

Challenge: Reported pIC50 at or above 7? Cc1nc(-c2cccc(/C=C/C(=O)NO)c2)n(CCN2CCOCC2)c1C
Response given: condition not met

Challenge: Assess whether reported pIC50 for Cc1nc(-c2ccccc2)n(CCc2ccccc2)c1-c1cccc(/C=C/C(=O)NO)c1 sits at 7 or higher.
Response given: condition met

Challenge: Hello, I need to know if Cc1c(-c2ccccc2)nc(-c2cccc(/C=C/C(=O)NO)c2)n1[C@@H]1CCCN(C)C1 has measured pIC50 not below 7. Thanks!
Response given: condition met

Challenge: Is reported pIC50 greater than or equal to 7 here: C[C@@H](c1ccccc1)n1c(-c2cccc(/C=C/C(=O)NO)c2)nc2ccccc21
Response given: condition met

Challenge: # check: pIC50 of O=C(/C=C/c1cccc(-c2nc3ccccc3n2CC2CCNCC2)c1)NO is greater than or equal to 7
Response given: condition not met

Challenge: Could you tell me if the measured pIC50 of CCN1CCC[C@@H](n2c(-c3cccc(/C=C/C(=O)NO)c3)nc(-c3ccccc3)c2C)C1 reaches 7 or more?
Response given: condition met

Challenge: Decide: pIC50 of O=C(/C=C/c1cccc(-c2nc3ccccc3n2CCCc2ccccc2)c1)NO >= 7?
Response given: condition met

Challenge: Please tell me: is the compound CCN1CCC[C@@H](n2c(-c3cccc(/C=C/C(=O)NO)c3)nc(Cc3ccccc3)c2C)C1 at or over 7 in terms of pIC50?
Response given: condition met

Challenge: Record O=C(/C=C/c1cccc(-c2nc3ccccc3n2-c2ccccc2)c1)NO ; criterion: pIC50 no lower than 7. Met?
Response given: condition met

---

- Test system: HL-60
- PROCEDURE DETAILS: Cytotoxicity against human HL60 cells assessed as NADH level after 72 hrs by MTS cells
- Format: functional, cell-based
- PROTOCOL CONDITIONS: HL-60, 72 h
Classification scheme (EC50): 1: < 60 nM; 2: ≥ 60 nM and < 800 nM; 3: ≥ 800 nM

Sample answers from the record:
smiles_entry=O=C(/C=C/c1cccc(-c2nc3ccccc3n2CCN2CCOCC2)c1)NO classification=3
smiles_entry=O=C(/C=C/c1cccc(-c2nc3ccccc3n2C2CCCCC2)c1)NO classification=2

Would you kindly look at the next entry?
Challenge: Consider CCN1CCC[C@@H](n2c(-c3cccc(/C=C/C(=O)NO)c3)nc(-c3ccccc3)c2C)C1 . To which EC50 class does it belong?
Response given: 1

---

Entries annotated with measured pIC50
- TEST TARGET: Protein deacetylase HDAC6 (Homo sapiens, UniProt Q9UBN7)
- PROCEDURE DETAILS: Inhibition of human recombinant HDAC6
Expect pIC50 as a plain number equal to -log10 of the molar concentration.

Challenge: Look up pIC50 for this compound: O=C(/C=C/c1cccc(-c2nc3ccccc3n2CC2CCNCC2)c1)NO
Response given: 6.70

Challenge: Fill blank: measured pIC50 of the compound O=C(/C=C/c1cccc(-c2nc3ccccc3n2Cc2ccccc2)c1)NO is ____.
Response given: 7.20

---

- System: PC-3
- PROCEDURE DETAILS: Cytotoxicity against human PC3 cells assessed as NADH level after 72 hrs by MTS cells
- Assay type: functional, cell-based
- PROTOCOL CONDITIONS: PC-3, 72 h
Recorded EC50 for the following compounds
Only the number, expressed in nM, is required.

Field: example entries. Status: answers known.
smiles_entry=CCN1CCC[C@@H](n2c(-c3cccc(/C=C/C(=O)NO)c3)nc(C)c2C)C1 measurement_unit=nM endpoint_result=80
smiles_entry=CN1CCC[C@H](n2c(-c3cccc(/C=C/C(=O)NO)c3)nc3ccccc32)C1 measurement_unit=nM endpoint_result=300
smiles_entry=Cc1c(Cc2ccccc2)nc(-c2cccc(/C=C/C(=O)NO)c2)n1[C@@H]1CCCN(C)C1 measurement_unit=nM endpoint_result=100
smiles_entry=Cc1nc(-c2cccc(/C=C/C(=O)NO)c2)n(CCc2ccccc2)c1C measurement_unit=nM endpoint_result=200
smiles_entry=C[C@H](c1ccccc1)n1c(-c2cccc(/C=C/C(=O)NO)c2)nc2ccccc21 measurement_unit=nM endpoint_result=10000
smiles_entry=O=C(/C=C/c1cccc(-c2nc3ccccc3n2[C@@H]2CCCNC2)c1)NO measurement_unit=nM endpoint_result=100

Challenge: Quick one: EC50 of Cc1c(Cc2ccccc2)nc(-c2cccc(/C=C/C(=O)NO)c2)n1CCN1CCOCC1 ?
Response given: 1000

Challenge: Could you share which EC50 value was measured for Cc1c(-c2ccccc2)nc(-c2cccc(/C=C/C(=O)NO)c2)n1[C@@H]1CCCN(C)C1 ?
Response given: 100

Challenge: May I ask what EC50 has been recorded for O=C(/C=C/c1cccc(-c2nc3ccccc3n2[C@H]2CCCNC2)c1)NO ?
Response given: 600

---

- Test system: PC-3
- PROCEDURE DETAILS: Cytotoxicity against human PC3 cells assessed as NADH level after 72 hrs by MTS cells
- Assay type: functional, cell-based
- PROTOCOL CONDITIONS: PC-3, 72 h
pEC50: −log10 of the molar value.
Outcome: 1 for pEC50 of at least 6; 0 for anything lower.

The examples below pair each entry with its known result.
molecule=Cc1nc(-c2cccc(/C=C/C(=O)NO)c2)n(CCc2ccccc2)c1-c1ccccc1 classification=1
molecule=O=C(/C=C/c1cccc(-c2nc3ccccc3n2-c2ccc(Cl)cc2)c1)NO classification=0
molecule=O=C(/C=C/c1cccc(-c2nc3ccccc3n2-c2ccccc2)c1)NO classification=0
molecule="O=C(/C=C/c1cccc(-c2nc3ccccc3n2C2CCCNC2)c1)NO (racemic)" classification=1

Challenge: Is reported pEC50 greater than or equal to 6 here: O=C(/C=C/c1cccc(-c2nc3ccccc3n2C2CCCCC2)c1)NO
Response given: 0

Challenge: Check if pEC50 >= 6 (inclusive). Item: O=C(/C=C/c1cccc(-c2nc3ccccc3n2CCc2ccccc2)c1)NO
Response given: 1

Challenge: Determine whether this molecule has pEC50 no lower than 6: O=C(/C=C/c1cccc(-c2nc3ccccc3n2CCN2CCCCC2)c1)NO
Response given: 1

---

Entries annotated with measured pIC50
- TEST TARGET: Protein deacetylase HDAC6 (Homo sapiens, UniProt Q9UBN7)
- Sequence (Q9UBN7 whole entry): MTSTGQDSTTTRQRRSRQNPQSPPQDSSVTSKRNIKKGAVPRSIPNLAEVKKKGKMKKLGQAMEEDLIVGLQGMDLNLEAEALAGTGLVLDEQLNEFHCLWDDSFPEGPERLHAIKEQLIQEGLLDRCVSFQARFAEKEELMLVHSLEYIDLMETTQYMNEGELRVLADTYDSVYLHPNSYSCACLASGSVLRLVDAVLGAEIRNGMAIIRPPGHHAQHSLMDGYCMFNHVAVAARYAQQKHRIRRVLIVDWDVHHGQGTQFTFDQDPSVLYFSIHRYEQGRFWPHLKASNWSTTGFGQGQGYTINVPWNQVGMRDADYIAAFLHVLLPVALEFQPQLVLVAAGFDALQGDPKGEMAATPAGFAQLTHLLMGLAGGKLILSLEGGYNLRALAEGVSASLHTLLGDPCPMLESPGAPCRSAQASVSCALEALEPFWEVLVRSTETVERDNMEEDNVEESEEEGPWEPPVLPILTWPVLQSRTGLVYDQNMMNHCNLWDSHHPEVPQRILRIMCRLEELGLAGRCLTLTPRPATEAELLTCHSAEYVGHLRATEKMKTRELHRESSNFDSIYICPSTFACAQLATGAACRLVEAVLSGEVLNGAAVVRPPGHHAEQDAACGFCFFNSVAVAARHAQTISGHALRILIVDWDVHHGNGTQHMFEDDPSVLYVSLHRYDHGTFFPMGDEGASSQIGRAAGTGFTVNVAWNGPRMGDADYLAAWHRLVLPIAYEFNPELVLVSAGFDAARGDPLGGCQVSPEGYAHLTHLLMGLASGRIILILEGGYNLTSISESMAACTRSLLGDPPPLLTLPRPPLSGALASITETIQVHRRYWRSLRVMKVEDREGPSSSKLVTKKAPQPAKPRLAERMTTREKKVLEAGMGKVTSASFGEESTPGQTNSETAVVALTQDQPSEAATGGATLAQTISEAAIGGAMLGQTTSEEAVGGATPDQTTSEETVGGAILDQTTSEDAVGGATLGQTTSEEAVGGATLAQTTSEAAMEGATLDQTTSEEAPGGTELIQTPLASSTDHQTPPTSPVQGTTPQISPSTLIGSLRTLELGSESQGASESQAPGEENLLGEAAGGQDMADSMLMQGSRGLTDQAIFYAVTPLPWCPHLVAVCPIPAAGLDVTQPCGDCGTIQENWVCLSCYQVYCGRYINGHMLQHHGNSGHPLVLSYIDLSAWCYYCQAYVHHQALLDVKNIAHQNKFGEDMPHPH
- PROCEDURE DETAILS: Inhibition of human recombinant HDAC6
# pIC50 is unitless: minus log10 of the molar concentration; print number only

smiles_entry=O=C(/C=C/c1cccc(-c2nc3ccccc3n2CCCc2ccccc2)c1)NO endpoint_result=7.70
smiles_entry=CN1CCC[C@H](n2c(-c3cccc(/C=C/C(=O)NO)c3)nc3ccccc32)C1 endpoint_result=7.30
smiles_entry=Cc1nc(-c2cccc(/C=C/C(=O)NO)c2)n(CCN2CCOCC2)c1C endpoint_result=6.80

// switching to the query compound
Challenge: Report pIC50 for Cc1nc(C)n(CCc2ccccc2)c1-c1cccc(/C=C/C(=O)NO)c1 please.
Response given: 6.92
